Test: viability profiling in MM1S myeloma cells – cell-based, resazurin fluorescence, basal, 24 h, PK04 Diversity Set, profiling panel (AID 1174); further: test concentration not given here
Details: higher = more signal, called active from +8 up or from −8 down
Categories are assigned from the measured z-score using these intervals: label 0 (below -0.7), label 1 (-0.7 to below 0.7), label 2 (0.7 or more)

Input line: Which category fits this record: "CN(C)CCCCCCNC(=O)[C@@H]1C[C@@H]2C(=O)N3CCC[C@H]3C(=O)N2[C@@H]1c1cccc(OCCO)c1"
Output line: label 0

Input line: Category of [N-]=[N+]=NCc1ccccc1[C@H]1OC(c2ccc(OCCCO)cc2)=N[C@@]1(Cc1ccccc1N=[N+]=[N-])C(=O)NCC(O)CO (stereo not given in full) :
Output line: label 0

Input line: Using the reported z-score, which band applies to "CCCC[C@@H]1C[C@H]1[C@@H](NC(=O)c1cccs1)c1ccccc1C(F)(F)F" ?
Output line: label 1

Input line: Tag the class for CC(C)c1ccc(NN2C(C(O)c3ccc(C#N)cc3)C=CC3C(=O)N(c4ccccc4)C(=O)C32)cc1 (stereo not given)
Output line: label 0

Input line: For the record "CCOC(=O)C[C@H]1[C@H](OC(=O)c2cc3ccccc3oc2=O)[C@@H](NC(=O)c2ccccc2)c2cc(OCCCO)ccc2N1C(=O)c1ccccc1" , report the class its z-score corresponds to.
Output line: label 2

Input line: # bin lookup: classify "COCCOC(=O)N1C(=O)[C@@]2(c3ccccc31)[C@H](C(=O)NC[C@H](O)c1ccccc1)[C@H]1C(=O)O[C@H](c3ccccc3)[C@H](c3ccccc3)N1[C@@H]2c1ccc(O)cc1" by its z-score
Output line: label 1

Input line: // bin(item) where item = "CCC#CCN(Cc1ccccc1Br)[C@H](/C=C/C1CC1)[C@@H](O)Cc1ccccc1"
Output line: label 2

Input line: Lab note: which band did "C=CCNC(=O)[C@@H]1[C@H]2C(=O)O[C@H](c3ccccc3)[C@H](c3ccccc3)N2[C@H](c2ccc(O)cc2)[C@@]12C(=O)N(C(=O)OCCOC)c1ccc(C#CC3=CCCCC3)cc12" land in?
Output line: label 1

Input line: Any idea which band "C=CC[C@@H](OC(=O)Nc1ccc(OC)cc1)c1ccc(O)c(F)c1" is in?
Output line: label 0

Input line: Kindly identify the class of "C=CC[C@@]1(C(=O)NCCCOC)N=C(c2ccc(OCCCO)cc2)O[C@@H]1c1ccccc1N=[N+]=[N-]" .
Output line: label 1

Input line: # classify by z-score band: "O[C@@H](Cc1ccccc1)[C@@H](/C=C/C1CC1)N(CC#Cc1ccccc1)Cc1ccccc1Br"
Output line: label 2

Input line: Using the reported z-score, which band applies to "CC(C)N1C(=O)C[C@@](C(=O)NC2CC2)(c2ccc([N+](=O)[O-])cc2)[C@H]1c1ccc(CO)cc1" ?
Output line: label 1

Input line: Assign a bin to "COc1cccc(C)c1NC(=O)O[C@H]1[C@H](OC(=O)Nc2ccccc2-c2ccccc2)[C@H](OC(=O)Nc2ccccc2-c2ccccc2)[C@@H](OC)O[C@@H]1CO"
Output line: label 0
